- Tested on: Rattus norvegicus
- Measurement Description: Antihypertensive activity in spontaneously hypertensive rats was measured as average blood pressure at 100 mg/kg, p.o. after 4 hours of postdose-2
- Type: functional
- Cond: route oral
Quantity Kind: BP (mmHg)
Report the figure in mmHg without appending any unit label.

Some solved cases for reference:
CC(=O)c1c(-c2ccc(Cl)cc2)c(-c2ccc(Cl)cc2)nn(C(C)CO)c1=O (stereo not given) = 191
CC(=O)NCCn1nc(-c2ccc(Cl)cc2)c(-c2ccc(Cl)cc2)c(C(C)=O)c1=O = 136
CC(C)NCCn1nc(-c2ccc(Cl)cc2)c(-c2ccc(Cl)cc2)c(C#N)c1=O.Cl = 209
CN(C)c1ccc(-c2c(-c3ccc(Cl)cc3)c(-c3ccc(Cl)cc3)nn(CCO)c2=O)cc1.Cl = 188
CC(=O)c1c(-c2ccc(Cl)cc2)c(-c2ccc(Cl)cc2)nn(CCN(C)C)c1=O.Cl = 160
CCOC(=O)N1CCN(CCn2nc(-c3ccc(Cl)cc3)c(-c3ccc(Cl)cc3)c(C(C)=O)c2=O)CC1 = 151
COCCn1nc(-c2ccc(Cl)cc2)c(-c2ccc(Cl)cc2)c(C(C)=O)c1=O = 144
N#Cc1c(-c2ccc(Cl)cc2)c(-c2ccc(Cl)cc2)nn(CCCC(=O)O)c1=O = 175
N#Cc1c(O)nnc(-c2ccc(Cl)cc2)c1-c1ccc(Cl)cc1 = 173

Shift focus to the following entry.
For the compound shown here, "CC(=O)c1c(-c2ccc(F)cc2)c(-c2ccc(F)cc2)nn(CCO)c1=O" , give the reported BP. 166

###

Here, each record is paired with measured BP data.
- System: Rattus norvegicus
- Measurement Description: Antihypertensive activity in spontaneously hypertensive rats was measured as average blood pressure at 100 mg/kg, po after 24 hours of postdose-2
- Type: functional
# number then unit; no other words

Some solved cases for reference:
CC(C)NCCn1nc(-c2ccc(Cl)cc2)c(-c2ccc(Cl)cc2)c(C#N)c1=O.Cl = 173 mmHg
CCOC(=O)N1CCN(CCn2nc(-c3ccc(Cl)cc3)c(-c3ccc(Cl)cc3)c(C(C)=O)c2=O)CC1 = 183 mmHg

For the compound shown here, "CC(=O)c1c(-c2ccc(F)cc2)c(-c2ccc(F)cc2)nn(CCO)c1=O" , give the reported BP. 180 mmHg

Similarly, "N#Cc1c(-c2ccc(Cl)cc2)c(-c2ccc(Cl)cc2)nn(CCO)c1=O" ? 152 mmHg

Similarly, "CCOC(=O)CCCn1nc(-c2ccc(Cl)cc2)c(-c2ccc(Cl)cc2)c(C(C)=O)c1=O" ? 181 mmHg

Similarly, "CC(=O)c1c(-c2ccc(Cl)cc2)c(-c2ccc(Cl)cc2)nn(CCN(C)C)c1=O" ? 144 mmHg

###

- Tested on: Rattus norvegicus
- Measurement Description: Antihypertensive activity in spontaneously hypertensive rats was measured as average blood pressure at 100 mg/kg, p.o. after 24 hours of postdose-1.
- Format: functional
- Cond: route oral
Quantity Kind: BP (mmHg)
Report the figure in mmHg without appending any unit label.

Some solved cases for reference:
N#Cc1c(-c2ccc(Cl)cc2)c(-c2ccc(Cl)cc2)nn(CCCC(=O)O)c1=O = 204
CC(=O)c1c(-c2ccc(Cl)cc2)c(-c2ccc(Cl)cc2)nn(CCN2CCCC2)c1=O = 138
CC(=O)c1c(-c2ccc(Cl)cc2)c(-c2ccc(Cl)cc2)nn(CCN=C(C)C)c1=O = 158

Shift focus to the following entry.
For the compound shown here, "CC(=O)c1c(-c2ccc(Cl)cc2)c(-c2ccc(Cl)cc2)nn(CCNC(C)C)c1=O" , give the reported BP. 181
